Target: hA2B AR (Homo sapiens)
Construct: expressed in transfected cells; host or cells: CHO cells
Sequence (P29275 1-332): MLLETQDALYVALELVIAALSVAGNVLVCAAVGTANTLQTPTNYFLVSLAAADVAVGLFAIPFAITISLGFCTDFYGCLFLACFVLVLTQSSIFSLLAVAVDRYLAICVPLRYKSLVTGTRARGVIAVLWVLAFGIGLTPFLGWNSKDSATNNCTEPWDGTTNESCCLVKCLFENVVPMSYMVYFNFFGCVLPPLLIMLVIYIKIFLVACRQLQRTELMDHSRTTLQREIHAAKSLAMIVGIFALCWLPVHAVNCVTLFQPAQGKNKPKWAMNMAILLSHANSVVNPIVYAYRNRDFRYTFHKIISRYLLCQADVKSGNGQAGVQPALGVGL
Assay: cAMP assay, stimulation of cAMP production in hA2B CHO cells (agonism)
Assay type: cell-based
Details: CHO; compound at 1µM, in comparison with NECA (1µM = 100%); read-out: Efficacy hA2B (cAMP assays) (converted)
Provide the reported Emax at 1 µM of each item.
Please respond with the number in % and leave the unit unwritten.

Bench note, hA2B AR (Homo sapiens): entry `N#Cc1c(N)nc(SCc2ncc[nH]2)c(C#N)c1-c1ccc(Cl)cc1` , its Emax at 1 µM = 32

Bench note, hA2B AR (Homo sapiens): entry `CC(C)COc1ccc(-c2c(C#N)c(N)nc(SCc3ncc[nH]3)c2C#N)cc1` , its Emax at 1 µM = 36

Bench note, hA2B AR (Homo sapiens): entry `N#Cc1c(N)nc(NCCO)c(C#N)c1-c1ccccc1` , its Emax at 1 µM = 1

Bench note, hA2B AR (Homo sapiens): entry `Cc1ccc(-c2c(C#N)c(N)nc(SCc3ncc[nH]3)c2C#N)cc1` , its Emax at 1 µM = 78

Bench note, hA2B AR (Homo sapiens): entry `COc1ccc(-c2c(C#N)c(N)nc(NCCO)c2C#N)cc1` , its Emax at 1 µM = 1

====

target: hA2A AR (Homo sapiens, UniProt P29274)
Sequence (P29274 whole entry): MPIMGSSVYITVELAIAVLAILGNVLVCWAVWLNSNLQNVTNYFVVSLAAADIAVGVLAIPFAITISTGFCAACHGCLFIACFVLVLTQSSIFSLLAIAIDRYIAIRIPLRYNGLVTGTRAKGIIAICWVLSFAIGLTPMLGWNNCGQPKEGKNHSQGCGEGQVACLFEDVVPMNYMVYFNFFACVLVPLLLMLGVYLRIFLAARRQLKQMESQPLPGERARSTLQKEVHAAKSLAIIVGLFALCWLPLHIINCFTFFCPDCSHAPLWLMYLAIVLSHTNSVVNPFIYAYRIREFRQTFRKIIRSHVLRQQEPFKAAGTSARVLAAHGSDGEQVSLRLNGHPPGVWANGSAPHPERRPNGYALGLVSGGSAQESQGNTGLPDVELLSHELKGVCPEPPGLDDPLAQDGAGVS
Labelling field: enter Yes if recorded Ki is less than 100 nM. Enter No if it equals or exceeds that cut-off.

Exercise: I wonder whether N#Cc1c(N)nc(SCc2ncc[nH]2)c(C#N)c1-c1ccc(Cl)cc1 [Compound 7] has Ki below 100 nM. Can you tell?
Key: No

Exercise: I wonder whether Cc1ccc(-c2c(C#N)c(N)nc(SCc3ncc[nH]3)c2C#N)cc1 [Compound 10] has Ki below 100 nM. Can you tell?
Key: Yes

Exercise: I wonder whether CSc1ccc(-c2c(C#N)c(N)nc(SCc3ncc[nH]3)c2C#N)cc1 [Compound 11] has Ki below 100 nM. Can you tell?
Key: No

Exercise: I wonder whether Cc1c(C#N)c(N)nc(SCc2ncc[nH]2)c1C#N [Compound 13] has Ki below 100 nM. Can you tell?
Key: No

Exercise: I wonder whether N#Cc1c(N)nc(SCc2ncc[nH]2)c(C#N)c1-c1ccc(F)cc1 [Compound 8] has Ki below 100 nM. Can you tell?
Key: No

Exercise: I wonder whether N#Cc1c(N)nc(NCc2ncc[nH]2)c(C#N)c1-c1ccccc1 [Compound 14] has Ki below 100 nM. Can you tell?
Key: No

====

Target protein (sequence): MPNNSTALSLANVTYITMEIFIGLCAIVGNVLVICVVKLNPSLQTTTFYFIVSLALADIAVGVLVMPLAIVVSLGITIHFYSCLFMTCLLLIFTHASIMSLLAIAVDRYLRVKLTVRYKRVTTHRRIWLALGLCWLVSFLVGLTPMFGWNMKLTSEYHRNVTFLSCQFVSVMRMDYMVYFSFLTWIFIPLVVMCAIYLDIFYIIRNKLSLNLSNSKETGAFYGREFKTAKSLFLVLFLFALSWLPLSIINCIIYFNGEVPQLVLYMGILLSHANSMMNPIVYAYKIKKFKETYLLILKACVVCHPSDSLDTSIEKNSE
Labelling field: enter t if recorded Ki is less than 400 nM. Enter f if it equals or exceeds that cut-off.

Exercise: I wonder whether `Cc1ccc(-c2c(C#N)c(N)nc(SCc3ncc[nH]3)c2C#N)cc1` has Ki below 400 nM. Can you tell?
Key: t

Exercise: I wonder whether `N#Cc1c(N)nc(SCc2ncc[nH]2)c(C#N)c1-c1ccc(Cl)cc1` has Ki below 400 nM. Can you tell?
Key: f

Exercise: I wonder whether `N#Cc1c(N)nc(SCc2ncc[nH]2)c(C#N)c1-c1ccc(OCC2CCC2)cc1` has Ki below 400 nM. Can you tell?
Key: f

Exercise: I wonder whether `Cc1c(C#N)c(N)nc(SCc2ncc[nH]2)c1C#N` has Ki below 400 nM. Can you tell?
Key: f

====

Provide the reported Emax at 1 µM of each item.
target: hA2B AR (Homo sapiens); construct: expressed in transfected cells; host or cells: CHO cells; assay: cAMP assay, stimulation of cAMP production in hA2B CHO cells (agonism); assay type: cell-based; conditions: CHO; compound at 1µM, in comparison with NECA (1µM = 100%); read-out: Efficacy hA2B (cAMP assays) (converted)
Please respond with the number in % and leave the unit unwritten.

According to the records, this molecule `N#Cc1c(N)nc(NCc2ncc[nH]2)c(C#N)c1-c1ccccc1` displays Emax at 1 µM of 1

According to the records, this molecule `C=C(C)COc1ccc(-c2c(C#N)c(N)nc(SCc3ncc[nH]3)c2C#N)cc1` displays Emax at 1 µM of 14

According to the records, this molecule `COC(=O)CSc1nc(N)c(C#N)c(-c2ccc(OC)cc2)c1C#N` displays Emax at 1 µM of 1

According to the records, this molecule `N#Cc1c(N)nc(-n2ccnc2)c(C#N)c1-c1ccccc1` displays Emax at 1 µM of 1

According to the records, this molecule `C=CCOc1ccc(-c2c(C#N)c(N)nc(SCc3ncc[nH]3)c2C#N)cc1` displays Emax at 1 µM of 56

====

Target: hA1 AR (Homo sapiens, UniProt P30542)
Construct: expressed in transfected cells; host or cells: CHO cells
Sequence (P30542 1-326): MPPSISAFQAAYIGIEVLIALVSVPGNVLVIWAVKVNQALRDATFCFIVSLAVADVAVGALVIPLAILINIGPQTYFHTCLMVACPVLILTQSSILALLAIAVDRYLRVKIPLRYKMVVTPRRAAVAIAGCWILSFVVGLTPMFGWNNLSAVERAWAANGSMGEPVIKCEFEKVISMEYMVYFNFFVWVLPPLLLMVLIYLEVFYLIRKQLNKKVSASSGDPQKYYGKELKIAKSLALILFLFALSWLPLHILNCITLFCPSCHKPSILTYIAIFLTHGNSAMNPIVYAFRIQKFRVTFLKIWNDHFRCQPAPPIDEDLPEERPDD
Assay: [3H]DPCPX competition binding to hA1 CHO cell membranes
Conditions: percentage of inhibition at 1µM; [3H]DPCPX
Provide the reported I% hA1 of each item.
Please respond with the number in % and leave the unit unwritten.

According to the records, this molecule N#Cc1c(N)nc(-n2ccnc2)c(C#N)c1-c1ccccc1 [Compound 17] displays I% hA1 of 27

According to the records, this molecule COc1ccc(CCNc2nc(N)c(C#N)c(-c3ccccc3)c2C#N)cc1 [Compound 16] displays I% hA1 of 1

According to the records, this molecule CC(C)COc1ccc(-c2c(C#N)c(N)nc(SCc3ncc[nH]3)c2C#N)cc1 [Compound 2] displays I% hA1 of 26

According to the records, this molecule N#Cc1cnc(N)c(C#N)c1-c1ccccc1 [Compound 18] displays I% hA1 of 15

According to the records, this molecule N#Cc1c(N)nc(SCc2ncc[nH]2)c(C#N)c1-c1ccc(OCC2CCC2)cc1 [Compound 1] displays I% hA1 of 25

According to the records, this molecule N#Cc1c(N)nc(SCc2ncc[nH]2)c(C#N)c1Cc1ccccc1 [Compound 12] displays I% hA1 of 31

According to the records, this molecule COc1ccc(-c2c(C#N)c(N)nc(NCCO)c2C#N)cc1 [Compound 19] displays I% hA1 of 14

====

Provide the reported EC50 of each item.
Molecular target: hA1 AR (Homo sapiens)
Sequence (P30542 1-326): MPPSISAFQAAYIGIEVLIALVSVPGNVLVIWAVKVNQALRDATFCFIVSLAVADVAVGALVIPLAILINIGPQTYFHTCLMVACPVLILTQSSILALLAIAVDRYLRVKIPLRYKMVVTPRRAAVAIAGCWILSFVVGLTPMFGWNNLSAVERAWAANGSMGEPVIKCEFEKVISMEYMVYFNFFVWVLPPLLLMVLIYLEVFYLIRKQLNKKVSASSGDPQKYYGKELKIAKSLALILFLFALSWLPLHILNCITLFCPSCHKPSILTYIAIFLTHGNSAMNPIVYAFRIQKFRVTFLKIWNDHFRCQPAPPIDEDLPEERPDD
Assay: Modulation of Forskolin-stimulated cAMP levels in hA1 CHO cells
Settings: Forskolin 5 µM; means ± SEM of four experiments; read-out: EC50 (potency to increase Forskolin-stimulated cAMP levels, hA1 CHO cells)
Please respond with the number in nM and leave the unit unwritten.

According to the records, this compound `N#Cc1c(N)nc(SCc2ncc[nH]2)c(C#N)c1-c1ccc(F)cc1` displays EC50 of 1.34

According to the records, this compound `C=CCOc1ccc(-c2c(C#N)c(N)nc(SCc3ncc[nH]3)c2C#N)cc1` displays EC50 of 19.6

According to the records, this compound `CSc1ccc(-c2c(C#N)c(N)nc(SCc3ncc[nH]3)c2C#N)cc1` displays EC50 of 8.87
